measurement notes: Comparison of bioavailability after nasal, intravenous and oral administration
Type: in vivo, Sprague-Dawley male rats
test settings: male, Sprague-Dawley, rat, in vivo; rats, IV injection, 2 mg/kg, in 0.9% saline; read-out: AUC0-2hr
metric name: AUC(0-t)

Look at this compound and give its reported AUC(0-t). Cc1nccn1CC1CCc2c(c3ccccc3n2C)C1=O.Cl.O.O (stereo not shown) [ondansetron hydrochloride]
51.1 ng·h/mL

* * *

measurement notes: Comparison of bioavailability after nasal, intravenous and oral administration
Assay type: in vivo, Sprague-Dawley male rats
test settings: male, Sprague-Dawley, rat, in vivo; rats, oral, 2 mg/kg, in purified water
metric name: Tmax (min)
Please give a number only; it is taken to be in min.

Look at this compound and give its reported Tmax. Cc1nccn1CC1CCc2c(c3ccccc3n2C)C1=O.Cl.O.O (stereo not shown) [ondansetron hydrochloride]
11.8
